target: T1, Amyloid Beta (Aβ) 1-42 (human); experiment: direct ELISA, antibody titrated on 2.5 ug/ml plate-coated fibril Abeta; the row head of the drawn table reads 'IC50', the note below it says EC50; no unit in the table, x axis 'log ng/ml antibody' [left panel]
T1 construct: The same peptide was used in several aggregation states: fibrils, a heterogeneous aggregate mixture, and soluble oligomers or aggregates; also called Aβ42; Aβ 42
T1 sequence (peptide, as listed by the source): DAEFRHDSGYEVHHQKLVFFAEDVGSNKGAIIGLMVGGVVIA
Measured Property: EC50 (µg/mL)
Enter your answer as a number in µg/mL; do not include the unit.

Problem: Record request: EC50 value, item h2931 (antibody, V domains shown, Humanized IgG) VH: EVQLLESGGGLVQPGGSLRLSCAASGFTFSNFGMSWVRQAPGKGLEWVASVRSGSGRTYYSDNVKGRFTISRDNSKNTLYLQMNSLRAEDTAVYYCVRYDHYTGTSDYWGQGTLVTVSS VL: DVVMTQSPLSLPVTLGEPASISCKSSQSLLDYDGKTYLNWLLQKPGQSPQRLIYRVTNRDTGVPDRFSGSGSGTDFTLKISRVEAEDVGVYYCWQGTHFPRSFGQGTKVEIK
Solution: 0.0435

Problem: Record request: EC50 value, item h2731 (antibody, V domains shown, Humanized IgG) VH: EVQLLESGGGLVQPGGSLRLSCAASGFTFSNYGMSWVRQAPGKGLEWVASIRSGSGRTYYSDNVKGRFTISRDNSKNTLYLQMNSLRAEDTAVYYCVRYDHYSGSSDYWGQGTLVTVSS VL: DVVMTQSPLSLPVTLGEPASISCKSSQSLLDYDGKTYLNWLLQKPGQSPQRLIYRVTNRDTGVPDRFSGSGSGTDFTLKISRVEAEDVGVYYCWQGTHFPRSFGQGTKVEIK
Solution: 0.0387

Problem: Record request: EC50 value, item h2726 (antibody, V domains shown, Humanized IgG, detected with anti-human IgG) VH: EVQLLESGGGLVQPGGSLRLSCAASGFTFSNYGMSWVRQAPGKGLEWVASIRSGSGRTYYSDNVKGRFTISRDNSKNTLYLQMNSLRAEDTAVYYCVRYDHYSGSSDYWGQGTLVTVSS VL: DVVMTQSPLSLPVTPGEPASISCKSSQSLLDYDGKTYLNWLLQKPGQSPQRLIYKVSNRDSGVPDRFSGSGSGTDFTLKISRVEAEDVGVYYCWQGTHFPRTFGQGTKVEIK
Solution: 0.0403

Problem: Record request: EC50 value, item h2831 (antibody, V domains shown, Humanized IgG) VH: EVQLLESGGGLVQPGGSLRLSCAASGFTFSNFGMSWVRQAPGKGLEWVASVRSGSGRTYYSDNVKGRFTISRDNSKNTLYLQMNSLRAEDTAVYYCVRYDHYSGTSDYWGQGTLVTVSS VL: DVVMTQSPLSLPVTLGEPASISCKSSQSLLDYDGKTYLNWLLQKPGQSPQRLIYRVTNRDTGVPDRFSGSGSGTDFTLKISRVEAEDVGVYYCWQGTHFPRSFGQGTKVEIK
Solution: 0.0462
